Tested on: S. epidermidis RP62A (Se, ATCC 35984)
Assay: microbe, parasite or virus in culture
Assay type: cell-based, Staphylococcus epidermidis
Conditions: ATCC 35984, 24 h
Where a SMILES comes first, the peptide text is derived from it. Bridges are numbered along the chain shown (N, C = ends). The star is where a group is joined. Lauroyl = CCCCCCCCCCCC(=O)*; Decanoyl = CCCCCCCCCC(=O)*
READOUT_LABEL: Antimicrobial Activity (MIC) Gram + Se (µg/mL)
Numeric answer only, unit µg/mL assumed.

// Antimicrobial Activity (MIC) Gram + Se lookup, molecule = CCCCCCCCCC(=O)N[C@H]1CSSC[C@@H](C(=O)N[C@@H](CCCNC(=N)N)C(=O)N[C@@H](CC(C)C)C(N)=O)NC(=O)[C@H](CCCNC(=N)N)NC(=O)[C@H](Cc2c[nH]c3ccccc23)NC(=O)[C@H](Cc2c[nH]c3ccccc23)NC(=O)CNC(=O)[C@H](Cc2c[nH]c3ccccc23)NC(=O)[C@H](CCCNC(=N)N)NC(=O)[C@H](CCCNC(=N)N)NC(=O)CNC1=O [Peptide C10-cTurg-6, C10- (CGRRWGWWRC)RL-NH2] (Decanoyl-CGRRWGWWRCRL-NH2; disulfide 1-10) , result: 8

get_value(item= CC(C)C[C@H](NC(=O)[C@H](CCCCN)NC(=O)[C@@H]1CSSC[C@H](N)C(=O)NCC(=O)N[C@@H](CCCCN)C(=O)N[C@@H](CCCCN)C(=O)N[C@@H](Cc2c[nH]c3ccccc23)C(=O)N[C@@H](Cc2c[nH]c3ccccc23)C(=O)NCC(=O)N[C@@H](Cc2c[nH]c3ccccc23)C(=O)N[C@@H](CCCCN)C(=O)N1)C(N)=O [cTurg-2] (H-CGKKWWGWKCKL-NH2; disulfide 1-10; N-terminus assumed) , readout=Antimicrobial Activity (MIC) Gram + Se) returns 16

Entry under test: CCCCCCCCCCCC(=O)N[C@@H](CS)C(=O)NCC(=O)N[C@@H](CCCCN)C(=O)N[C@@H](CCCCN)C(=O)N1CCC[C@H]1C(=O)NCC(=O)NCC(=O)N[C@@H](Cc1c[nH]c2ccccc12)C(=O)N[C@@H](CCCCN)C(=O)N[C@@H](CS)C(=O)N[C@@H](CCCCN)C(=O)N[C@@H](CC(C)C)C(N)=O [Peptide C12-Turg-1, C12- CGKKPGGWKC KL-NH2] (Lauroyl-CGKKPGGWKCKL-NH2) . Its Antimicrobial Activity (MIC) Gram + Se was 4

// Antimicrobial Activity (MIC) Gram + Se value for CCCCCCCCCCCC(=O)N[C@H]1CSSC[C@@H](C(=O)N[C@@H](CCCCN)C(=O)N[C@@H](CC(C)C)C(N)=O)NC(=O)[C@H](CCCCN)NC(=O)[C@H](Cc2c[nH]c3ccccc23)NC(=O)CNC(=O)[C@H](Cc2c[nH]c3ccccc23)NC(=O)[C@H](Cc2c[nH]c3ccccc23)NC(=O)[C@H](CCCCN)NC(=O)[C@H](CCCCN)NC(=O)CNC1=O [Peptide C12-cTurg-2, C12- (CGKKWWGWKC)KL-NH2] (Lauroyl-CGKKWWGWKCKL-NH2; disulfide 1-10) : 8

Kindly note the recorded Antimicrobial Activity (MIC) Gram + Se for CC(C)C[C@H](NC(=O)[C@H](CCCNC(=N)N)NC(=O)[C@@H]1CSSC[C@H](N)C(=O)NCC(=O)N[C@@H](CCCNC(=N)N)C(=O)N[C@@H](CCCNC(=N)N)C(=O)N[C@@H](Cc2c[nH]c3ccccc23)C(=O)NCC(=O)N[C@@H](Cc2c[nH]c3ccccc23)C(=O)N[C@@H](Cc2c[nH]c3ccccc23)C(=O)N[C@@H](CCCNC(=N)N)C(=O)N1)C(N)=O [cTurg-6] (H-CGRRWGWWRCRL-NH2; disulfide 1-10; N-terminus assumed) , which is 8

Short answer for CCCCCCCCCCCC(=O)N[C@@H](CS)C(=O)NCC(=O)N[C@@H](CCCCN)C(=O)N[C@@H](CCCCN)C(=O)N[C@@H](Cc1c[nH]c2ccccc12)C(=O)N[C@@H](Cc1c[nH]c2ccccc12)C(=O)NCC(=O)N[C@@H](Cc1c[nH]c2ccccc12)C(=O)N[C@@H](CCCCN)C(=O)N[C@@H](CS)C(=O)N[C@@H](CCCCN)C(=O)N[C@@H](CC(C)C)C(N)=O [Peptide C12-Turg-2, C12- CGKKWWGWKC KL-NH2] (Lauroyl-CGKKWWGWKCKL-NH2) : Antimicrobial Activity (MIC) Gram + Se was 8

Noted for CCCCCCCCCCCC(=O)N[C@H]1CSSC[C@@H](C(=O)N[C@@H](CCCNC(=N)N)C(=O)N[C@@H](CC(C)C)C(N)=O)NC(=O)[C@H](CCCNC(=N)N)NC(=O)[C@H](Cc2c[nH]c3ccccc23)NC(=O)[C@H](Cc2c[nH]c3ccccc23)NC(=O)CNC(=O)[C@H](Cc2c[nH]c3ccccc23)NC(=O)[C@H](CCCNC(=N)N)NC(=O)[C@H](CCCNC(=N)N)NC(=O)CNC1=O [Peptide C12-cTurg-6, C12- (CGRRWGWWRC)RL-NH2] (Lauroyl-CGRRWGWWRCRL-NH2; disulfide 1-10) : its Antimicrobial Activity (MIC) Gram + Se reads 8

Measured Antimicrobial Activity (MIC) Gram + Se of CCCCCCCCCC(=O)N[C@@H](CS)C(=O)NCC(=O)N[C@@H](CCCCN)C(=O)N[C@@H](CCCCN)C(=O)N1CCC[C@H]1C(=O)NCC(=O)NCC(=O)N[C@@H](Cc1c[nH]c2ccccc12)C(=O)N[C@@H](CCCCN)C(=O)N[C@@H](CS)C(=O)N[C@@H](CCCCN)C(=O)N[C@@H](CC(C)C)C(N)=O [Peptide C10-Turg-1, C10- CGKKPGGWKC KL-NH2] (Decanoyl-CGKKPGGWKCKL-NH2) : 8
